- target.system: NADPH oxidase 1 (Homo sapiens)
- assay: NOX1 inhibitors, concentration-response, dose response, cell-based, luminescence, cherry picks 2 (AID 434997)
- reported.conditions: NOX1-expressing cells, ROS luminescence
test.readout: pIC50
Reminder that pIC50 means the negative base-10 logarithm of the concentration expressed in mol/L.

Qu. Annotate the compound FC(F)(F)c1ccc2c(c1)Nc1ccccc1S2 with its measured pIC50.
Ans. 6.49
